# experiment.summary: Cellular Toxicity (caspase-3) Jurkat (AID 655);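 further: cells exposed to compound for 16 h at 37 °C before reading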; further: potency means the concentration at half of the fitted maximal effect
# cond: Jurkat caspase-3 activation, luminescence; series mostly up to 92.2 µM
Records with an inconclusive call do not appear. Activity calls are given as the source filed them. The call rests on the fitted dose curve; in most records, active means well fitted activation curve with a large enough effect; inconclusive means small, poorly fitted or top-dose-only effect; inactive means flat fitted curve, though single readings scatter.
property: Potency

// worked examples, Potency included
| compound | reading |
| --- | --- |
| CCCCC(CC)COC(=O)C(C#N)=C(c1ccccc1)c1ccccc1 (stereo not given) | inactive |
| c1ccc2[nH]c(-c3cscn3)nc2c1 | inactive |
| COc1c2occc2cc2ccc(=O)oc12 | inactive |
| CCc1nc(N)nc(N)c1-c1ccc(Cl)cc1 | 31.6 µM (active) |

Please look at this compound and report its Potency: `CCCc1cc(=O)[nH]c(=S)[nH]1` inactive

----------
# experiment.summary: qHTS of pediatric cancer cell lines to identify multiple opportunities for drug repurposing: Primary screen for RD cells (AID 1347104);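 further: plate controls were DMSO for no effect and bortezomib for full effect; nearly all actives have a fitted effect of over 55% in size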
# cond: RD rhabdomyosarcoma viability, CellTiter-Glo luminescence, 48 h; series mostly up to 46 µM
Inconclusive results are not listed. Active and inactive are the calls of the source. Calls come from the whole dose curve; as a rule, active = well fitted cell-killing curve with a large enough effect; inconclusive = small, poorly fitted or top-dose-only effect; inactive = flat fitted curve, though single readings scatter.
Respond with a class label; see active, inactive

| molecule | label |
| --- | --- |
| Nc1cccc2c1CN(C1CCC(=O)NC1=O)C2=O (stereo not given) | inactive |

What did the test return for `CCOc1cc(CC(=O)N[C@@H](CC(C)C)c2ccccc2N2CCCCC2)ccc1C(=O)O` ? inactive

# outcome recorded in this test, key = `C[C@H](Cn1cnc2c(N)ncnc21)OCP(=O)(O)O` inactive

Query: recorded result category for CCOC(=O)C(C)Oc1cccc2c(=O)n(CC(=O)Nc3ccc4c(c3)OCCO4)ccc12 (stereo not given) in this test inactive

----------
# experiment.summary: Quantitative High-Throughput drug screen in 47 multiple myeloma cell lines against the NCATS MIPE library collection: MM1R_ATCC cell viability assay (AID 1918981); further: nearly all actives have a fitted effect of over 35% in size
# cond: MM1R multiple myeloma cells, CellTiter-Glo viability, 48 h; series mostly up to 45.8 µM
Inconclusive results are not listed. Active and inactive are the calls of the source. The call rests on the fitted dose curve; in most records, active means well fitted cell-killing curve with a large enough effect; inconclusive means small, poorly fitted or top-dose-only effect, or effect the other way; inactive means no such curve, though single readings can be large or run the other way.
Select the correct class. Options are class 1 = active, class 0 = inactive and nothing else.

| molecule | label |
| --- | --- |
| CCOC(=O)c1c(C)n(C)c2ccc(O)cc12 | class 0 |
| CC1(C)CCC(C)(C)c2cc(NC(=O)c3ccc(C(=O)O)cc3)ccc21 | class 1 |
| Nc1ccc(S(N)(=O)=O)cc1 | class 0 |
| Cc1cc2c(s1)Nc1ccccc1N=C2N1CCN(C)CC1 | class 0 |
| CN(C)CCc1c[nH]c2ccc(Cn3cncn3)cc12 | class 0 |

Test call for this molecule, please: `Cc1cc(=O)c2c(O)c3c(O)cc(=O)c4c3c3c(cc(O)c1c23)C(C)(C)C=4O` class 1

Hey, what did the test say about CCCCC(CC)COC(=O)C(C#N)=C(c1ccccc1)c1ccccc1 (centres undefined) ? class 0

# fetch the recorded call for `C[C@@H](c1ncncc1F)[C@](O)(Cn1cncn1)c1ccc(F)cc1F` here class 0

# fetch the recorded call for CC(S)C(=O)NCC(=O)O (centres undefined) here class 0

Look up the recorded call for `c1ccc2[nH]c(-c3cscn3)nc2c1` in this test. class 0

Check the results log: what was the call for Clc1ccc(C(Cn2ccnc2)OCc2ccc(Sc3ccccc3)cc2)c(Cl)c1 (centres undefined) ? class 1

# lookup: test call for `COc1ccc2cc([C@H](C)C(=O)O)ccc2c1` class 0

Could you please tell me the result logged for `CC(=O)N1CCN(c2ccc(OC[C@H]3CO[C@](Cn4ccnc4)(c4ccc(Cl)cc4Cl)O3)cc2)CC1` in this assay? class 1

Would you mind telling me which call this test gave `CS(=O)(=O)OCCCCOS(C)(=O)=O` ? class 1

Reference source: PubChem BioAssay (NCATS)
